assay: Monkey pharmacokinetics, SC and IV administration; assay type: in vivo, cynomolgus monkeys; conditions: cynomolgus monkey, plasma, iv, 30 mg/kg
Numbered stars: 1 amine (or outer) side, 2 acyl side, 3 side chain; on linkers, the order of the positions; unused ones are H or OH. Bridge positions count the residues as written; N and C are the ends. Square brackets hold non-standard residues; d marks the D form. Peptide text beside a SMILES is read from it. * marks the point of attachment. ξ: configuration not given here. Orn(4R-OH,5R-OCH2CH2NMe3+) = C[N+](C)(C)CCO[C@@H](N[*:3])[C@H](O)C[C@H](N[*:1])C(=O)[*:2]; pTerphenylCO(4''-OnC5H11) = CCCCCOc1ccc(-c2ccc(-c3ccc(C(=O)*)cc3)cc2)cc1; hTyr(3S-OH,4S-OH) = N[C@H](C(=O)O)[C@H](O)[C@@H](O)c1ccc(O)cc1; X1 = C[C@H]1CN([*:1])C(C(=O)[*:2])C1O; Hyp = O=C(O)[C@@H]1C[C@@H](O)CN1; ξT = CC(O)C(N)C(=O)O
ASSAY_METRIC: AUC(0-t) (µg·h/mL)

MOLECULE	UNITS	RESULT
CCCCCOc1ccc(-c2ccc(-c3ccc(C(=O)N[C@H]4C[C@@H](O)[C@@H](OCC[N+](C)(C)C)NC(=O)C5C(O)[C@@H](C)CN5C(=O)[C@H]([C@@H](C)O)NC(=O)[C@H]([C@H](O)[C@@H](O)c5ccc(O)cc5)NC(=O)[C@@H]5C[C@@H](O)CN5C(=O)C(C(C)O)NC4=O)cc3)cc2)cc1 (stereo partly drawn) [CD101] ({pTerphenylCO(4''-OnC5H11)}-[Orn(4R-OH,5R-OCH2CH2NMe3+)][ξT][Hyp][hTyr(3S-OH,4S-OH)]T[X1]; lactam 1-C)	µg·h/mL	3140

---

Experiment: Plasma and lung epithelial lining fluid (ELF) pharmacokinetics in ICR mice
Assay type: in vivo
Conditions: ICR, mouse, lung epithelial lining fluid (ELF), intraperitoneal; 20 mg/kg IP; at 72 h
Procedure: At pre-dose, 1, 3, 6, 12, 24, 48, and 72 hours post-dose, 3 mice/timepoint were anesthetized/euthanized for blood collection (plasma) and bronchoalveolar lavage fluid (BALF) collection with 2×0.5 mL flushes of saline. Urea levels for plasma/BALF normalization for the volume of lung epithelial lining fluid (ELF) calculation were quantified using a commercially-available spectrophotometry-based assay. […] Urea for plasma/BALF normalization for ELF volume were quantified using spectrophotometry. […]
Numbered stars: 1 amine (or outer) side, 2 acyl side, 3 side chain; on linkers, the order of the positions; unused ones are H or OH. Bridge positions count the residues as written; N and C are the ends. Square brackets hold non-standard residues; d marks the D form. Peptide text beside a SMILES is read from it. * marks the point of attachment. ξ: configuration not given here. Orn(4R-OH,5R-OCH2CH2NMe3+) = C[N+](C)(C)CCO[C@@H](N[*:3])[C@H](O)C[C@H](N[*:1])C(=O)[*:2]; pTerphenylCO(4''-OnC5H11) = CCCCCOc1ccc(-c2ccc(-c3ccc(C(=O)*)cc3)cc2)cc1; hTyr(3S-OH,4S-OH) = N[C@H](C(=O)O)[C@H](O)[C@@H](O)c1ccc(O)cc1; X1 = C[C@H]1CN([*:1])C(C(=O)[*:2])C1O; Hyp = O=C(O)[C@@H]1C[C@@H](O)CN1; ξT = CC(O)C(N)C(=O)O

COMPOUND	UNITS	concentration at 72 h
CCCCCOc1ccc(-c2ccc(-c3ccc(C(=O)N[C@H]4C[C@@H](O)[C@@H](OCC[N+](C)(C)C)NC(=O)C5C(O)[C@@H](C)CN5C(=O)[C@H]([C@@H](C)O)NC(=O)[C@H]([C@H](O)[C@@H](O)c5ccc(O)cc5)NC(=O)[C@@H]5C[C@@H](O)CN5C(=O)C(C(C)O)NC4=O)cc3)cc2)cc1 (stereo partly drawn) [CD101] ({pTerphenylCO(4''-OnC5H11)}-[Orn(4R-OH,5R-OCH2CH2NMe3+)][ξT][Hyp][hTyr(3S-OH,4S-OH)]T[X1]; lactam 1-C)	ng/mL	4000

---

assay: Single-dose plasma pharmacokinetics in mice, IP; assay type: in vivo; conditions: mouse, IP doses of 1, 4, 16 and 64 mg/kg, read-out: elimination half-life, range
Numbered stars: 1 amine (or outer) side, 2 acyl side, 3 side chain; on linkers, the order of the positions; unused ones are H or OH. Bridge positions count the residues as written; N and C are the ends. Square brackets hold non-standard residues; d marks the D form. Peptide text beside a SMILES is read from it. * marks the point of attachment. ξ: configuration not given here. Orn(4R-OH,5R-OCH2CH2NMe3+) = C[N+](C)(C)CCO[C@@H](N[*:3])[C@H](O)C[C@H](N[*:1])C(=O)[*:2]; pTerphenylCO(4''-OnC5H11) = CCCCCOc1ccc(-c2ccc(-c3ccc(C(=O)*)cc3)cc2)cc1; hTyr(3S-OH,4S-OH) = N[C@H](C(=O)O)[C@H](O)[C@@H](O)c1ccc(O)cc1; X1 = C[C@H]1CN([*:1])C(C(=O)[*:2])C1O; Hyp = O=C(O)[C@@H]1C[C@@H](O)CN1; ξT = CC(O)C(N)C(=O)O
ASSAY_METRIC: half-life

MOLECULE	RESULT
CCCCCOc1ccc(-c2ccc(-c3ccc(C(=O)N[C@H]4C[C@@H](O)[C@@H](OCC[N+](C)(C)C)NC(=O)C5C(O)[C@@H](C)CN5C(=O)[C@H]([C@@H](C)O)NC(=O)[C@H]([C@H](O)[C@@H](O)c5ccc(O)cc5)NC(=O)[C@@H]5C[C@@H](O)CN5C(=O)C(C(C)O)NC4=O)cc3)cc2)cc1 (stereo partly drawn) [CD101] ({pTerphenylCO(4''-OnC5H11)}-[Orn(4R-OH,5R-OCH2CH2NMe3+)][ξT][Hyp][hTyr(3S-OH,4S-OH)]T[X1]; lactam 1-C)	29 to 41 h

---

assay: Monkey pharmacokinetics, SC and IV administration; format: in vivo, cynomolgus monkeys; settings: cynomolgus monkey, plasma, iv, 30 mg/kg
Numbered stars: 1 amine (or outer) side, 2 acyl side, 3 side chain; on linkers, the order of the positions; unused ones are H or OH. Bridge positions count the residues as written; N and C are the ends. Square brackets hold non-standard residues; d marks the D form. Peptide text beside a SMILES is read from it. * marks the point of attachment. ξ: configuration not given here. Orn(4R-OH,5R-OCH2CH2NMe3+) = C[N+](C)(C)CCO[C@@H](N[*:3])[C@H](O)C[C@H](N[*:1])C(=O)[*:2]; pTerphenylCO(4''-OnC5H11) = CCCCCOc1ccc(-c2ccc(-c3ccc(C(=O)*)cc3)cc2)cc1; hTyr(3S-OH,4S-OH) = N[C@H](C(=O)O)[C@H](O)[C@@H](O)c1ccc(O)cc1; X1 = C[C@H]1CN([*:1])C(C(=O)[*:2])C1O; Hyp = O=C(O)[C@@H]1C[C@@H](O)CN1; ξT = CC(O)C(N)C(=O)O

MOLECULE	UNITS	Tmax
CCCCCOc1ccc(-c2ccc(-c3ccc(C(=O)N[C@H]4C[C@@H](O)[C@@H](OCC[N+](C)(C)C)NC(=O)C5C(O)[C@@H](C)CN5C(=O)[C@H]([C@@H](C)O)NC(=O)[C@H]([C@H](O)[C@@H](O)c5ccc(O)cc5)NC(=O)[C@@H]5C[C@@H](O)CN5C(=O)C(C(C)O)NC4=O)cc3)cc2)cc1 (stereo partly drawn) [CD101] ({pTerphenylCO(4''-OnC5H11)}-[Orn(4R-OH,5R-OCH2CH2NMe3+)][ξT][Hyp][hTyr(3S-OH,4S-OH)]T[X1]; lactam 1-C)	h	1

---

assay: Monkey pharmacokinetics, SC and IV administration; type: in vivo, cynomolgus monkeys; details: cynomolgus monkey, plasma, iv, 30 mg/kg; read-out: AUCinf
Numbered stars: 1 amine (or outer) side, 2 acyl side, 3 side chain; on linkers, the order of the positions; unused ones are H or OH. Bridge positions count the residues as written; N and C are the ends. Square brackets hold non-standard residues; d marks the D form. Peptide text beside a SMILES is read from it. * marks the point of attachment. ξ: configuration not given here. Orn(4R-OH,5R-OCH2CH2NMe3+) = C[N+](C)(C)CCO[C@@H](N[*:3])[C@H](O)C[C@H](N[*:1])C(=O)[*:2]; pTerphenylCO(4''-OnC5H11) = CCCCCOc1ccc(-c2ccc(-c3ccc(C(=O)*)cc3)cc2)cc1; hTyr(3S-OH,4S-OH) = N[C@H](C(=O)O)[C@H](O)[C@@H](O)c1ccc(O)cc1; X1 = C[C@H]1CN([*:1])C(C(=O)[*:2])C1O; Hyp = O=C(O)[C@@H]1C[C@@H](O)CN1; ξT = CC(O)C(N)C(=O)O

MOLECULE	AUC(0-inf) (µg·h/mL)
CCCCCOc1ccc(-c2ccc(-c3ccc(C(=O)N[C@H]4C[C@@H](O)[C@@H](OCC[N+](C)(C)C)NC(=O)C5C(O)[C@@H](C)CN5C(=O)[C@H]([C@@H](C)O)NC(=O)[C@H]([C@H](O)[C@@H](O)c5ccc(O)cc5)NC(=O)[C@@H]5C[C@@H](O)CN5C(=O)C(C(C)O)NC4=O)cc3)cc2)cc1 (stereo partly drawn) [CD101] ({pTerphenylCO(4''-OnC5H11)}-[Orn(4R-OH,5R-OCH2CH2NMe3+)][ξT][Hyp][hTyr(3S-OH,4S-OH)]T[X1]; lactam 1-C)	3340

Source: patent US20240076347A1
